target: ERα (Homo sapiens); assay: Degradation of ERα in T-47D cells (immunoblotting, 4 h); type: cell-based; set-up: host or cells: T-47D; details: 1nM compound
Sequence (P03372 whole entry): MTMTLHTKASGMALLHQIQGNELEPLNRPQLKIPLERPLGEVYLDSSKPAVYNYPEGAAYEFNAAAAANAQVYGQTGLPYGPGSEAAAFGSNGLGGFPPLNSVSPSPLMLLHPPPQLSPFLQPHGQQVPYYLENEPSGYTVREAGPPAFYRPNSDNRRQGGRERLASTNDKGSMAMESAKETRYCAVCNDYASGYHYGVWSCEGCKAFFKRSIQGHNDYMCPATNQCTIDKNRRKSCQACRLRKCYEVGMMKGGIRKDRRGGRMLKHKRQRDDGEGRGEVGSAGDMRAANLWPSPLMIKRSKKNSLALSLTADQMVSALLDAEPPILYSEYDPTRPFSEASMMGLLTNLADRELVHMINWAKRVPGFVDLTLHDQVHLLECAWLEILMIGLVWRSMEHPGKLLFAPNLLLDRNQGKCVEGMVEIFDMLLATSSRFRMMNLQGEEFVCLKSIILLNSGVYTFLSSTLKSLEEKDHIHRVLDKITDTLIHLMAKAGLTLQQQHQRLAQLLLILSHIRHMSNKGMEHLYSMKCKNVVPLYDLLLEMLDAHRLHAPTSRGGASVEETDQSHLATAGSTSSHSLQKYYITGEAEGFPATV
Degradation rate (%) of ERα in T-47D cells for assorted molecules
Response body: numeric value in %, unit text excluded.

Need Degradation rate (%) of ERα in T-47D cells of O=C1CCC(N2Cc3c(ccc4c3OCC43CCN(C[C@H]4CC[C@H](C(=O)N5CCN(c6ccc([C@@H]7c8ccc(O)cc8CC[C@@H]7c7ccccc7)cc6)CC5)CC4)CC3)C2=O)C(=O)N1 (some centres unmarked) , thanks.
49

Need Degradation rate (%) of ERα in T-47D cells of O=C1CCC(N2Cc3c(ccc4c3OCC43CCN(CC(=O)N4CC[C@]5(CCN(c6ccc([C@@H]7c8ccc(O)cc8CC[C@@H]7c7ccccc7)cc6)C5)C4)CC3)C2=O)C(=O)N1 (some centres unmarked) , thanks.
50

Need Degradation rate (%) of ERα in T-47D cells of C[C@@H]1Cc2c(ccc3[nH]ncc23)[C@@H](c2c(F)cc(N3CCC(C(=O)N4CCC(N5CCC6(CC5)COc5c6ccc6c5CN(C5CCC(=O)NC5=O)C6=O)CC4)CC3)cc2F)N1CC(F)F (some centres unmarked) , thanks.
57

Need Degradation rate (%) of ERα in T-47D cells of CN(C(=O)CN1CCC2(CC1)COc1c2ccc2c1CN(C1CCC(=O)NC1=O)C2=O)C1CCC2(CC1)CN(c1ccc([C@@H]3c4ccc(O)cc4CC[C@@H]3c3ccccc3)cc1)C2 (some centres unmarked) , thanks.
48

Need Degradation rate (%) of ERα in T-47D cells of O=C1CCC(N2Cc3c(ccc4c3OCC43CCN(C(=O)C4CCN(C5CCN(c6ccc([C@@H]7c8ccc(O)cc8CC[C@@H]7c7ccccc7)cc6)CC5)CC4)CC3)C2=O)C(=O)N1 (some centres unmarked) [H22] , thanks.
56
